Tested on: RXF 393 renal
protocolDetails: NCI-60 one-dose screen, 48 h (100 = growth as untreated, 0 = no growth, -100 = all killed)
measurementSetup: 10 µM unless noted
Compounds without any hit were thinned out: in the full panel of roughly 83,000, 20% have a hit.
Could you please mark true (1) for values of growth below 60% and false (0) for values at or above it?

molecule: O=C(CCOCCNC(=O)COc1ccc2c(c1)OCC(c1ccc(F)cc1)C2=O)NCCCC(O)(P(=O)(O)O)P(=O)(O)O (centres undefined)
classification: false (0)

molecule: COc1ccc(OC)c(/C=C/C(=O)N/N=C/c2ccc(Cl)cc2)c1
classification: true (1)

molecule: Cc1ccc(-c2nc(N3CCN(CC(=O)Nc4ccc(Cl)cc4)CC3)c3ccccc3n2)cc1
classification: false (0)

molecule: C=C1C(=O)O[C@H]2[C@H]1CC/C(COC(=O)C(C)c1ccc(CC(C)C)cc1)=C\CC[C@@]1(C)O[C@@H]21 (some centres undefined)
classification: true (1)

molecule: c1cc(NCCc2ccncc2)nc(-n2cnc3ccccc32)c1
classification: false (0)

molecule: NC[C@@H]1O[C@H](O[C@@H]2[C@@H](CO)OC(O[C@@H]3[C@@H](O)[C@H](N)C[C@H](N)[C@H]3OC3O[C@H](CN)[C@@H](O)[C@H](O)[C@H]3N)[C@@H]2O)[C@H](N)[C@@H](O)[C@@H]1O (some centres undefined)
classification: false (0)

molecule: NCCCNc1nc2ccccc2c2c(=O)c3cc(F)cc(F)c3sc12
classification: false (0)

molecule: COc1ccc(-c2ncnc3c2ncn3CC#CCCl)cc1
classification: true (1)

molecule: COc1ccc2c(c1)C(C)Cc1c(ncnc1-n1c(C)nc3ccccc31)N2C (centres undefined)
classification: true (1)

====

System: SK-MEL-5 melanoma
protocolDetails: NCI-60 one-dose screen, 48 h
measurementSetup: 10 µM unless noted
Compounds without any hit were thinned out: in the full panel of roughly 83,000, 20% have a hit. Calls of active or inactive are those of the source. Rule for the calls: active = growth percent below 10; inactive = the rest.
Labels: active, inactive

compound: O=C(N/N=C/[C@@H](O)[C@H](O)[C@H](O)CO)c1ccc(NC(=O)c2cccnc2)cc1
targetUnderTest: SK-MEL-5 melanoma
classification: inactive

compound: OC(COc1ccccc1)CN1CCN(c2ccc(Cl)cc2)CC1 (configuration not stated)
targetUnderTest: SK-MEL-5 melanoma
classification: inactive

compound: C[C@]12CC[C@@H]3c4cc(OC(F)F)c(OS(N)(=O)=O)cc4CC[C@H]3[C@@H]1CC[C@@H]2OS(N)(=O)=O
targetUnderTest: SK-MEL-5 melanoma
classification: inactive

compound: C=C1C(=O)O[C@H]2[C@H]1CC/C(COC(=O)CSCC(=O)OC/C1=C/CC[C@@]3(C)O[C@H]3[C@H]3OC(=O)C(=C)[C@@H]3CC1)=C\CC[C@@]1(C)O[C@@H]21
targetUnderTest: SK-MEL-5 melanoma
classification: inactive

compound: O=C(CCN1C(=O)/C(=C/c2ccc(O)cc2)SC1=S)Nc1ccc(Cl)cc1
targetUnderTest: SK-MEL-5 melanoma
classification: inactive

compound: COC(=O)c1ccc2[nH]c(O)c(C(=Nc3ccc(N(C)C(=O)CN4CCN(C)CC4)cc3)c3ccccc3)c2c1
targetUnderTest: SK-MEL-5 melanoma
classification: inactive

compound: O=C(/C=C/c1sc(Cl)nc1Cl)c1ccccc1
targetUnderTest: SK-MEL-5 melanoma
classification: inactive

compound: C=C1C(=O)O[C@H]2[C@H]1CC/C(COC(=O)C(C)c1ccc(CC(C)C)cc1)=C\CC[C@@]1(C)O[C@@H]21 (some centres not stated)
targetUnderTest: SK-MEL-5 melanoma
classification: active

compound: CCc1ccccc1-n1c(N)c(C#N)c(-c2ccc(Cl)cc2)c(C#N)c1=O
targetUnderTest: SK-MEL-5 melanoma
classification: inactive

compound: C#Cc1cccc(NC(=O)c2ccc(NC(=O)C=C)cc2)c1
targetUnderTest: SK-MEL-5 melanoma
classification: inactive

compound: Cc1cc(N2CCCC2)nc(N(CCCNc2ccnc3cc(Cl)ccc23)Cc2ccccn2)n1
targetUnderTest: SK-MEL-5 melanoma
classification: inactive

compound: COc1cc(C(=O)/C=C/c2ccc(OCCCCCC[P+](c3ccccc3)(c3ccccc3)c3ccccc3)cc2)cc(OC)c1OC
targetUnderTest: SK-MEL-5 melanoma
classification: active

compound: CCc1ccc(Oc2c(-c3ccc(OCc4ccc(Cl)cc4)cc3O)n[nH]c2C(F)(F)F)cc1
targetUnderTest: SK-MEL-5 melanoma
classification: active

compound: Cc1nc2ccccc2n1CC1C(=O)NC(=O)NC1=O
targetUnderTest: SK-MEL-5 melanoma
classification: inactive

compound: Brc1ccc2[nH]cc(-c3nc(-c4c[nH]c5ccncc45)cs3)c2c1
targetUnderTest: SK-MEL-5 melanoma
classification: active

compound: O=c1c2cc(F)ccc2sc2c(N3CCNCC3)nc3ccc(F)cc3c12
targetUnderTest: SK-MEL-5 melanoma
classification: inactive

compound: Cc1nc(S(=O)(=O)c2ccccc2)c(S(=O)(=O)Cc2ccc([N+](=O)[O-])cc2)o1
targetUnderTest: SK-MEL-5 melanoma
classification: inactive

====

Test system: SF-268 CNS
protocolDetails: NCI-60 one-dose screen, 48 h
measurementSetup: 10 µM unless noted
Procedure: Cells are grown in 96 well plates and exposed to the test compound for 48 hours. Compounds are tested at a single concentration, which is 10^-5 M for most compounds. The reported endpoint is percent growth (GI% or GIPRCNT), where numbers from 0 - 100% represent growth inhibition, and numbers from -100% - 0 represent cell death. For example, a value of 40 represents 60% growth inhibition. A value of 0 means no net growth occurred over the course of the experiment. […]
Compounds without any hit were thinned out: in the full panel of roughly 83,000, 20% have a hit. Calls of active or inactive are those of the source. The calls were made as follows: active = growth percent below 10; inactive = the rest.
Labels: yes (1) = active, no (0) = inactive

molecule: N#Cc1c(-c2ccccc2)nc(SCC(=O)Nc2nc(-c3ccc(Cl)cc3)cs2)[nH]c1=O
classification: no (0)
//
molecule: Cc1cccc(OCC(O)CN2CCN(c3ccc(Cl)cc3)CC2)c1 (centres undefined)
classification: no (0)
//
molecule: Cc1cc2nc3cc(C)c(N)cc3[n+](-c3ccccc3)c2cc1N
classification: no (0)
//
molecule: Cc1cccc(NCc2cn(-c3ccc(C(=O)O)cc3)nc2-c2ccc(C(=O)O)cc2)n1
classification: no (0)
//
molecule: NC[C@@H]1O[C@H](O[C@@H]2[C@@H](CO)OC(O[C@@H]3[C@@H](O)[C@H](N)C[C@H](N)[C@H]3OC3O[C@H](CN)[C@@H](O)[C@H](O)[C@H]3N)[C@@H]2O)[C@H](N)[C@@H](O)[C@@H]1O (some centres undefined)
classification: no (0)
//
molecule: CS(=O)(=O)N(c1cc(-c2ccc3ncnc(Nc4ccc(F)c(Cl)c4)c3c2)cnc1Cl)S(C)(=O)=O
classification: no (0)
//
molecule: Cc1nc(S(=O)(=O)c2ccccc2)c(S(=O)(=O)Cc2ccc([N+](=O)[O-])cc2)o1
classification: no (0)
//
molecule: O=c1ccc(N=Nc2ccc([N+](=O)[O-])cc2)ccc1O
classification: no (0)
//
molecule: O=S(=O)(NCCCNc1cc(-c2c(-c3cccc(O)c3)nc3sccn23)ccn1)c1cccc2ccccc12
classification: no (0)
//
molecule: Cn1cc(C(=O)c2nc(-c3cn(C)c4ccc(F)cc34)no2)c2cc(F)ccc21
classification: no (0)
//
molecule: Cc1ccc(-c2nn(C)c(=O)c3noc(-c4ccc(C)cc4)c23)cc1
classification: no (0)
//
molecule: CN1C(=O)N(C)C2Nn3c(s/c(=C\c4ccccc4)c3=O)=NC21 (centres undefined)
classification: no (0)
//
molecule: CC([C@H]1CCC2C3CCC4C[C@@H](NC=O)CC[C@]4(C)C3CC[C@@]21C)N(C)C (some centres undefined)
classification: yes (1)
//
molecule: CCN(CC)CCNc1nc2ccccc2c2c(=O)c3cc(Cl)ccc3sc12
classification: no (0)
//
molecule: Cc1ccc(-c2cnc3sc(C(=O)NCCc4ccccc4)c(C)n23)cc1
classification: no (0)
//
molecule: CC1Cc2ccccc2N1NC(=O)c1ccc(Cl)c(S(N)(=O)=O)c1 (centres undefined)
classification: no (0)
//
molecule: O=C(Nc1ccc(Cl)cc1F)c1ccccc1O
classification: no (0)
//
molecule: N[C@@H](Cc1ccccc1)[C@@H](O)C(=O)NCc1ccc(F)cc1
classification: no (0)
//
molecule: CC/C=C\C[C@@H](O)C/C=C1/C(=O)C=C[C@H]1C/C=C\CCCC(=O)OC
classification: yes (1)
//
molecule: O=C1/C(=C/c2ccccc2[N+](=O)[O-])Oc2ccc(O)c(O)c21
classification: no (0)
//
molecule: O=c1ccn(Cc2cn(-c3c4ccccc4nc4ccccc34)nn2)c(=O)[nH]1
classification: no (0)
//
molecule: O=C(Nn1c(NCC(=O)N2c3ccccc3Sc3ccccc32)nnc1-c1ccc(O)cc1)c1ccccc1
classification: no (0)
//
molecule: COc1ccc(/C=C(\C#N)n2nnc3c(F)cccc32)cc1
classification: no (0)
//
molecule: c1ccc(-c2nc3nonc3nc2-c2ccccc2)cc1
classification: no (0)
//
molecule: S=c1nc(-c2ccccc2)oc(=NC2CCCCC2)n1C1CCCCC1
classification: no (0)
//
molecule: COC1=C(C)C(=O)c2c(c(CCCl)c3n2CCC3O)C1=O (centres undefined)
classification: yes (1)
//
molecule: O=C(O)c1cn(C2CC2)c2cc(N3CCN(C(=O)Nc4nc(-c5ccc(Cl)cc5)cs4)CC3)c(F)cc2c1=O
classification: no (0)
//
molecule: CC([C@H]1CCC2C3CCC4C(=O)C(NC=O)=CC[C@]4(C)C3CC[C@@]21C)N(C)C (some centres undefined)
classification: yes (1)
//
molecule: CCOC(=O)c1cn2ncnc(Oc3ccc(NC(=O)NCCN(C)C)c(Cl)c3)c2c1C
classification: no (0)
//
molecule: C=C1C(=O)O[C@H]2[C@H]1CC/C(COC(=O)CCSSCCC(=O)OC/C1=C/CC[C@@]3(C)O[C@H]3[C@H]3OC(=O)C(=C)[C@@H]3CC1)=C\CC[C@@]1(C)O[C@@H]21
classification: no (0)
//
molecule: COc1ccc(-c2nnc(COc3ccc(Cl)cc3Cl)o2)cc1OC
classification: no (0)
//
molecule: COc1cccc(-c2nc(-c3ccc(NC(=O)OC(C)C)cc3)[nH]c2-c2ccnc(Br)c2)c1
classification: no (0)
//
molecule: NCCNc1nc2ccccc2c2c(=O)c3cc(F)ccc3sc12
classification: no (0)
//
molecule: CCOC(=O)c1sc2ncc(-c3ccc(C)cc3)n2c1C
classification: no (0)

# credit: PubChem BioAssay (NCI)
